Data origin, for the record: ChEMBL document CHEMBL1151299

# STUDY_TARGET: Aldo-keto reductase family 1 member B1 (Rattus norvegicus)
# EXPERIMENTAL_PROTOCOL: Inhibition of rat lens aldose reductase at 10 uM
READOUT_KIND: inhibition (%)

A: COc1c(O)cc2oc(-c3ccc(O)c(O)c3)c(O[C@@H]3O[C@H](CO)[C@H](O)[C@H](O)[C@H]3O)c(=O)c2c1O
B: O=C(O)CN1C(=O)c2cccc3cccc(c23)C1=O
Recorded inhibition values differ for A and B ; which one is higher? Please reply using the label of the selected record. A
(A: 7%, B: 0%)
